# System: Streptavidin (Streptomyces avidinii)
# Measurement notes: streptavidin binders on small-molecule microarray, primary screen, artefact control for SMM compound annotation, biophysical, 635/667 nm fluorescence (AID 1147);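 also: signal reflects streptavidin binding to arrayed compounds as a control protein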
# Stated conditions: streptavidin binding, higher = more signal
Kindly return T if reported composite z-score is no lower than 1; return F if it is lower.

These recorded examples may help you get a feel for the data.
Molecule: CC(C)NC(=O)[C@@H]1c2ccccc2C(=O)N(C2Cc3ccccc3C2)[C@H]1c1ccc(CO)cc1
System: Streptavidin (Streptomyces avidinii)
Class assignment: F
--
Molecule: CCOC(=O)C[C@H]1[C@H](OC(=O)c2ccccc2-c2ccccc2)[C@@H](NC(=O)CC(C)C)c2cc(OCCCO)ccc2N1C(=O)Cc1ccc(OC)cc1
System: Streptavidin (Streptomyces avidinii)
Class assignment: F
--
Molecule: COCCOC(=O)N1C(=O)[C@@]2(c3cc(C#CCCO)ccc31)[C@H](C(N)=O)[C@H]1C(=O)O[C@H](c3ccccc3)[C@H](c3ccccc3)N1[C@@H]2c1ccc(O)cc1
System: Streptavidin (Streptomyces avidinii)
Class assignment: F
--
Molecule: CC(C)N1C(=O)c2ccccc2[C@](C)(C(=O)NCCN2CCOCC2)[C@@H]1c1ccc(CO)cc1
System: Streptavidin (Streptomyces avidinii)
Class assignment: F
--
Molecule: COc1ccc([Si](C)(C)[C@@H]2[C@@H](CCO)O[C@]3(C(=O)N(Cc4ccc(N(C=O)c5ccccc5)cc4)c4ccccc43)[C@H]2C)cc1
System: Streptavidin (Streptomyces avidinii)
Class assignment: F

Enquiry: Can C=CCC(OC(C)=O)[C@@H]1[C@@H](N(Cc2cccc3ccccc23)C(=O)c2ccc(-c3ccccc3)cc2)c2cc(OCCCO)ccc2N1C(=O)c1ccc2ccccc2c1 (stereo partly drawn) be said to have composite z-score at or above 1?
Return: F

Enquiry: For this molecule, is measured composite z-score 1 or higher? `CC(C)(C)OC(=O)CC[C@]1(C(=O)N2CCOCC2)N=C(c2ccc(OCCCO)cc2)O[C@H]1c1ccccc1N=[N+]=[N-]`
Return: T

Enquiry: In plain terms: is recorded composite z-score at least 1 for `C=C(CCCC)/C(=C/C[C@@H](OC(=O)c1ccncc1)c1ccc(OCCO)cc1)c1cc(C(=O)OC)ccc1OC` ?
Return: F

Enquiry: # check: composite z-score of C=C(C)[C@@H]1CC=C(C(O)C2C=CC3C(=O)N(c4ccccc4)C(=O)C3N2Nc2ccccc2)CC1 (stereo partly drawn) is greater than or equal to 1
Return: T

Enquiry: Can `CO[C@H]1O[C@H](CO)[C@@H](OC(=O)Nc2ccc(Oc3ccccc3)cc2)[C@H](OC(=O)Nc2ccc3c(c2)OCO3)[C@H]1OC(=O)Nc1ccc2c(c1)OCO2` be said to have composite z-score at or above 1?
Return: F

Enquiry: Reported composite z-score at or above 1? `COCCOC(=O)N1C(=O)[C@@]2(c3cc(C#CC4(O)CCCCCC4)ccc31)[C@H](c1ccc(OCCO)cc1)N1[C@H](c3ccccc3)[C@H](c3ccccc3)OC(=O)[C@H]1[C@@H]2C(=O)N1CCN(c2ncccn2)CC1`
Return: T

Enquiry: Hi, just wondering whether `[N-]=[N+]=NCc1ccccc1[C@@H]1OC(c2ccc(OCCCO)cc2)=N[C@]1(Cc1ccccc1)C(N)=O` shows composite z-score of 1 or higher.
Return: T

Enquiry: composite z-score >= 1 for `COC(=O)[C@@]1(Cc2ccccc2)[C@H]2c3cc(C(=O)N4CCCC4)n(Cc4ccc(S(C)(=O)=O)cc4)c3C[C@H]2CN1C(=O)c1ccccc1` ?
Return: T

----------
As shown below, each of these molecules has a reported composite z-score value.
# System: Lefty1
# Measurement notes: Lefty1 binders on small-molecule microarrays, primary screen, biochemical, small-molecule microarray, 635/667 nm fluorescence (AID 1139)
# Stated conditions: small-molecule microarray binding, fluorescence 635/667; higher = more signal
Answer with the value's number alone.

Completed entries (count: 5):
Compound: CO[C@H]1O[C@H](CO)[C@@H](OC(=O)Nc2ccccc2)[C@H](OC(=O)Nc2ccccc2)[C@@H]1OC(=O)Nc1ccccc1
Readout type: composite z-score
Test result: 0.464

Compound: C[N+](C)(C)CCCCCCNC(=O)[C@@H]1C[C@@H]2C(=O)N[C@@H](Cc3ccccc3)C(=O)N2[C@@H]1c1cccc(OCCO)c1
Readout type: composite z-score
Test result: 1

Compound: COC(=O)[C@@]1(Cc2ccc(OC)cc2)[C@H]2c3cc(C(=O)N4CCCC4)n(Cc4ccc(O)c(OC)c4)c3C[C@H]2CN1C(=O)c1ccccc1
Readout type: composite z-score
Test result: -0.304

Compound: CN(C)C(=O)[C@]1(Cc2ccccc2N=[N+]=[N-])N=C(c2ccc(OCCCO)cc2)O[C@@H]1c1ccccc1N=[N+]=[N-]
Readout type: composite z-score
Test result: 0.513

Compound: C=CCOC(=O)[C@H]1[C@@H]2C(=O)O[C@@H](c3ccccc3)[C@@H](c3ccccc3)N2[C@@H](c2ccc(OCCOC(=O)[C@H]3C[C@H]4C(=O)N[C@@H](CCCCNC(C)=O)C(=O)N4[C@H]3c3ccc(O)cc3)cc2)[C@]12C(=O)Nc1ccc(I)cc12
Readout type: composite z-score
Test result: 1.42

Kindly review the next molecule as well.
Enquiry: Requested field: composite z-score. Item: `COCCCNC(=O)[C@@]1(C)c2ccccc2C(=O)N(C(C)C)[C@H]1c1ccc(CO)cc1`
Return: 0.499

----------
# System: NADPH oxidase 2 (Homo sapiens) (UniProt P04839)
# Sequence (P04839 whole entry, looked up): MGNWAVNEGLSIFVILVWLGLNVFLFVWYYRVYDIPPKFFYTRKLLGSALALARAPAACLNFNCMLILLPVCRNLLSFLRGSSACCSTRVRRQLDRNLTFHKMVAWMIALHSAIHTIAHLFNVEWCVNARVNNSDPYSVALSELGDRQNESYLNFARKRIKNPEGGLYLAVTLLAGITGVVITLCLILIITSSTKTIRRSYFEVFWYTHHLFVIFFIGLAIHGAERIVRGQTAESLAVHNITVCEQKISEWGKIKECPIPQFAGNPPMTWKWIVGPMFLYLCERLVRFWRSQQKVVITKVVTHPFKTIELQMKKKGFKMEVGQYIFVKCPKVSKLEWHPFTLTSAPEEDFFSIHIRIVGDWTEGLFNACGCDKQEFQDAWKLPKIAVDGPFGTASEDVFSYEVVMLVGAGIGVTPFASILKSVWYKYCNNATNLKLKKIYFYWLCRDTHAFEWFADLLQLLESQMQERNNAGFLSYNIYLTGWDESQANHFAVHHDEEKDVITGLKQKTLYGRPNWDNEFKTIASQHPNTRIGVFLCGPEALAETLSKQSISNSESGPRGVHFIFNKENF
# Measurement notes: NOX2-dependent H2O2 signal modulators, primary screen, NOX inhibitor project, cell-based, HEK293-NOX2, PMA-stimulated, Amplex Red fluorescence (AID 1159); also: test concentration not given here
# Stated conditions: 45 min, higher = more signal, called active from +8 up or from −8 down
z-score listing for selected compounds.
API note: the answer field is a bare number with no unit suffix.

Example cases with answers are listed next.
Compound: C=CC[C@]1(C(=O)NCc2ccccc2)N=C(c2ccc(OCCCO)cc2)O[C@H]1c1ccccc1N=[N+]=[N-]
z-score: -1.8
//
Compound: [N-]=[N+]=NCc1ccccc1C[C@]1(C(N)=O)COC(c2ccc(OCCCO)cc2)=N1
z-score: -1.48
//
Compound: COc1ccccc1CN1C(=O)c2ccccc2[C@@H](C(=O)NC2CC2)[C@@H]1c1ccc(CO)cc1
z-score: 0.211
//
Compound: CC(C)N1C(=O)C[C@@](C(=O)NCC(F)(F)F)(c2ccc([N+](=O)[O-])cc2)[C@H]1c1ccc(CO)cc1
z-score: 0.271
//
Compound: Cc1ccc(S[C@]2(C(=O)NCCCN(C)C)CC(=O)N(Cc3cc(C(F)(F)F)cc(C(F)(F)F)c3)[C@@H]2c2ccc(CO)cc2)cc1
z-score: -0.373

Enquiry: I have this compound here, `COc1ccc([Si](C)(C)[C@H]2[C@H](CCO)O[C@@]3(C(=O)N(Cc4ccc(N(C=O)c5ccccc5)cc4)c4ccccc43)[C@@H]2C)cc1` , and I need its recorded z-score.
Return: 0.118

Enquiry: What z-score value was documented for this compound, `C=C(CCCC)/C(=C/C[C@@H](OC(C)=O)c1ccc(OCCO)cc1)c1cnc2ccccc2c1` ?
Return: -1.98

Enquiry: Entry `C=C[C@H](OC)[C@@H](OC(=O)Nc1ccc(OC)cc1)c1ccc(O)c(F)c1` : reported z-score = ?
Return: -1.5

----------
Documented z-score across a set of molecules
# Measurement notes: HepG2 cell viability effects, profiling panel, calcein-AM fluorescence, 48 h, basal (AID 1164); also: test concentration not given here
# Stated conditions: higher = more signal

Compound: CC(C)(C)OC(=O)CC[C@]1(C(=O)N2CCOCC2)N=C(c2ccc(OCCCO)cc2)O[C@H]1c1ccccc1N=[N+]=[N-]
z-score: 0.556
--
Compound: Cc1ccc([C@@H]2C[C@@H](Sc3ccccc3)[C@H](C(=O)O)CN2S(=O)(=O)c2ccc(C)cc2)cc1
z-score: -0.316
--
Compound: [N-]=[N+]=NCc1ccccc1C[C@]1(C(=O)N2CCCCC2)N=C(c2ccc(OCCCO)cc2)O[C@H]1c1ccccc1N=[N+]=[N-]
z-score: -0.454

Please turn your attention to the following entry.
Enquiry: I'd like to know its z-score. The molecule in question is `CO[C@H]1O[C@H](CO)[C@@H](OC(=O)Nc2ccc(Oc3ccccc3)cc2)[C@H](OC(=O)Nc2ccc3c(c2)OCO3)[C@H]1OC(=O)Nc1ccc2c(c1)OCO2`
Return: 0.106

----------
# Measurement notes: mitochondrial membrane potential change in A549 cells, profiling panel, cell-based, JC-1 fluorescence, basal, 24 h, 100 nL (AID 1138);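 also: A549 lung adenocarcinoma cells under basal conditions with no added stimulus; test concentration not given here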
# Stated conditions: higher = more signal
Readout type: z-score

Compound: [N-]=[N+]=NCc1ccccc1[C@@H]1OC(c2ccc(OCCCO)cc2)=N[C@]1(Cc1ccccc1)C(N)=O
Test result: 0.199

Enquiry: Dear colleague, I am looking for the recorded z-score of the following compound: `NC(=O)NCC#Cc1ccc2c(c1)[C@]1(C(=O)N2)[C@H](c2ccc(O)cc2)N2[C@H](c3ccccc3)[C@H](c3ccccc3)OC(=O)[C@H]2[C@@H]1C(=O)O`
Return: -0.61

Enquiry: What does the record list as z-score for CN1C(=O)C2C=CC(C(O)c3ccc([N+](=O)[O-])cc3)N(N3CCCCC3)C2C1=O (stereo unspecified) ?
Return: -0.39

Enquiry: GET /values?readout=z-score&item= C=CCC(OC(C)=O)[C@@H]1[C@@H](N(Cc2ccc(-c3ccccc3)cc2)C(=O)c2ccc(-c3ccccc3)cc2)c2cc(OCCCO)ccc2N1C(=O)Cc1ccc2ccccc2c1 (stereo partly specified)
Return: 0.857

Enquiry: If you can, please state the reported z-score value of `NC(=O)NCC#Cc1ccc2c(c1)[C@]1(C(=O)N2)[C@H](C(N)=O)[C@H]2C(=O)O[C@H](c3ccccc3)[C@H](c3ccccc3)N2[C@@H]1c1ccc(O)cc1` .
Return: -1.27

Enquiry: Tell me the measured z-score of `C=CCOC(=O)[C@H]1[C@@H]2C(=O)O[C@@H](c3ccccc3)[C@@H](c3ccccc3)N2[C@@H](c2ccc(OCCOC(=O)[C@@H]3C[C@@H]4C(=O)N[C@@H](CCCCNC(C)=O)C(=O)N4[C@@H]3c3ccc(O)cc3)cc2)[C@]12C(=O)Nc1ccccc12` , please.
Return: -1.55
